target: Melatonin receptor (Gallus gallus) (UniProt P49288+P51050+P49285); test: Relative binding affinity to chicken retinal membranes compared to 2-[125I]iodomelatonin.; conditions: Retina; Membrane
The following compounds are shown together with reported Relative affinity values.
Just the number.

Query: Please report the measured Relative affinity for COc1cccc2c1CCC(NC(C)=O)C2 (stereo not drawn) tested on Melatonin receptor (Gallus gallus) (UniProt P49288+P51050+P49285).
Result: 3420

Query: Please report the measured Relative affinity for O=C(CCl)NC1CCc2ccccc2C1 (stereo not drawn) tested on Melatonin receptor (Gallus gallus) (UniProt P49288+P51050+P49285).
Result: 167

Query: Please report the measured Relative affinity for "COc1cccc(CCNC(C)=O)c1" tested on Melatonin receptor (Gallus gallus) (UniProt P49288+P51050+P49285).
Result: 1020

Query: Please report the measured Relative affinity for CCC(=O)NC1CCc2ccccc2C1 (stereo not drawn) tested on Melatonin receptor (Gallus gallus) (UniProt P49288+P51050+P49285).
Result: 254

Query: Please report the measured Relative affinity for "COc1ccccc1CCNC(C)=O" tested on Melatonin receptor (Gallus gallus) (UniProt P49288+P51050+P49285).
Result: 737

Query: Please report the measured Relative affinity for COc1cccc2c1CC(NC(=O)c1ccccc1)CC2 (stereo not drawn) tested on Melatonin receptor (Gallus gallus) (UniProt P49288+P51050+P49285).
Result: 40500

Query: Please report the measured Relative affinity for COc1cccc2c1CC(NC(=O)CCl)CC2 (stereo not drawn) tested on Melatonin receptor (Gallus gallus) (UniProt P49288+P51050+P49285).
Result: 6.6

Continuing:
Query: Please report the measured Relative affinity for "CCC(=O)NCCc1ccccc1OC" tested on Melatonin receptor (Gallus gallus) (UniProt P49288+P51050+P49285).
Result: 1380
